Entry source: paper PMC5997364

For each of the molecules below, state its Forced degradation Δ Purity.
- CONDITION: 7 Days at 37°C, 1.0 mg/mL in water;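 note: purity and concentration determined by HPLC on aqueous solutions kept in a stability chamber, with samples analyzed at day 0 and after incubation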

Some solved entries appear below for comparison.
{"STRUCTURE SMILES": "C=C1NC(=O)[C@H](Cc2c[nH]c3ccccc23)NC(=O)[C@H](NC(=O)[C@H](CCCCN)NC(=O)[C@@H](N)[C@@H](C)CC)CSC[C@@H](C(=O)N[C@H]2C(=O)N3CCC[C@H]3C(=O)NCC(=O)N[C@H](C(=O)N[C@@H](C)C(=O)N[C@@H](CC(N)=O)C(=O)N/C(=C\\C)C(=O)NCC(=O)N[C@@H]3CSC[C@@H]4NC(=O)[C@H](Cc5ccc(O)cc5)NC(=O)[C@@H](CS/C=C\\NC4=O)NC(=O)[C@H](CC(N)=O)NC(=O)[C@H](Cc4ccccc4)NC3=O)CS[C@H]2C)NC(=O)[C@H](CC(C)C)NC1=O", "Forced degradation Δ Purity": "-6.64%"}
{"STRUCTURE SMILES": "C=C1NC(=O)[C@H](Cc2c[nH]c3ccccc23)NC(=O)[C@H](NC(=O)[C@H](CCCCN)NC(=O)[C@@H](N)[C@@H](C)CC)CSC[C@@H](C(=O)N[C@H]2C(=O)N3CCC[C@H]3C(=O)NCC(=O)N[C@H](C(=O)N[C@@H](C)C(=O)N[C@@H](CC(N)=O)C(=O)N/C(=C\\C)C(=O)NCC(=O)N[C@@H]3CSC[C@@H]4NC(=O)[C@H](Cc5ccccc5)NC(=O)[C@@H](CS/C=C\\NC4=O)NC(=O)[C@H](CC(N)=O)NC(=O)[C@H](Cc4ccccc4)NC3=O)CS[C@H]2C)NC(=O)[C@H](CC(C)C)NC1=O", "Forced degradation Δ Purity": "-7.42%"}
{"STRUCTURE SMILES": "C=C1NC(=O)[C@H](Cc2c[nH]c3ccccc23)NC(=O)[C@H](NC(=O)[C@H](CCCCN)NC(=O)[C@@H](N)C(C)C)CSC[C@@H](C(=O)N[C@H]2C(=O)N3CCC[C@H]3C(=O)NCC(=O)N[C@H](C(=O)N[C@@H](C)C(=O)N[C@@H](CC(N)=O)C(=O)N/C(=C\\C)C(=O)NCC(=O)N[C@@H]3CSC[C@@H]4NC(=O)[C@H](Cc5ccc(O)cc5)NC(=O)[C@@H](CS/C=C\\NC4=O)NC(=O)[C@H](CC(N)=O)NC(=O)[C@H](Cc4ccccc4)NC3=O)CS[C@H]2C)NC(=O)[C@H](CC(C)C)NC1=O", "Forced degradation Δ Purity": "-5.20%"}

Value of Forced degradation Δ Purity reported for the molecule C=C1NC(=O)[C@H](Cc2c[nH]c3ccccc23)NC(=O)[C@H](NC(=O)[C@H](CCCCN)NC(=O)[C@@H](N)CC(C)C)CSC[C@@H](C(=O)N[C@H]2C(=O)N3CCC[C@H]3C(=O)NCC(=O)N[C@H](C(=O)N[C@@H](C)C(=O)N[C@@H](CC(N)=O)C(=O)N/C(=C\C)C(=O)NCC(=O)N[C@@H]3CSC[C@@H]4NC(=O)[C@H](Cc5ccc(O)cc5)NC(=O)[C@@H](CS/C=C\NC4=O)NC(=O)[C@H](CC(N)=O)NC(=O)[C@H](Cc4ccccc4)NC3=O)CS[C@H]2C)NC(=O)[C@H](CC(C)C)NC1=O is -4.63%
